# TARGET SYSTEM: T1, Nluc-IL23R fusion protein (human, UniProt Q5VWK5 22-629)
# T1 construct: range 22-629; Stably expressed in HEK293 cells; also called hIL-23R; human IL-23R fused to a Nanoluc luciferase enzyme; not shown: Nanoluc luciferase (Promega N1371 plasmid) at the N-terminus
# T1 sequence (looked up): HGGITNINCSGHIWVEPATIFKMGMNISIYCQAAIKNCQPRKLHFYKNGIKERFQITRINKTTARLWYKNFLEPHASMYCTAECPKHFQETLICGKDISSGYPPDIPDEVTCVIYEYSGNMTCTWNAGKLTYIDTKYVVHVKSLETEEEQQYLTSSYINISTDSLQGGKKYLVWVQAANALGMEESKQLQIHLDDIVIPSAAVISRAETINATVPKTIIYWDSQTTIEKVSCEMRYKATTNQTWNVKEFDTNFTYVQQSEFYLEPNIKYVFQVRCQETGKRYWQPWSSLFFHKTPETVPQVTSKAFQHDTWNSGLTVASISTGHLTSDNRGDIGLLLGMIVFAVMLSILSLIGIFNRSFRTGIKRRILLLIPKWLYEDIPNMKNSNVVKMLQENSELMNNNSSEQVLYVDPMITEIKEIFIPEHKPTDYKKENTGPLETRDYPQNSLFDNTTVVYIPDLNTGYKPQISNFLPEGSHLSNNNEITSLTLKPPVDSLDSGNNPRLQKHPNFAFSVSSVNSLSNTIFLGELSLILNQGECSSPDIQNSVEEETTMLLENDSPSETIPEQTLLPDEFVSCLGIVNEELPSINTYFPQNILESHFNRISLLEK
# TEST DESCRIPTION: BRET displacement of TAMRA-labelled peptide, Nluc-IL23R membranes
Bridges are numbered along the chain shown (N, C = ends). 1,3‑dibromopropan‑2‑one = linker (CAS 816-39-7) joining two Cys as 1,3-dithio-propan-2-one bridge -SCH2C(=O)CH2S-
OBSERVABLE: Ki (nM)
Numbers only, in nM.

// returns reported Ki for input H-DESCWQCWWLKR-NH2 (lactam 2-11; linker 4-7 via 1,3‑dibromopropan‑2‑one) [Compound 4]
143
